Listing: CC50 of selected compounds
test system: human embryonic kidney cell line HEK293 (ATCC CRL-1573); assay: in vitro; format: cell-based; settings: human, 20 h

| compound | CC50 |
| --- | --- |
| CC(=O)O[C@H]1C[C@@]2(C)[C@@H](CC(=O)[C@H]3[C@@]4(C)CC[C@H](NCc5ccccc5)[C@@H](C)[C@@H]4CC[C@@]32C)/C1=C(\CCC=C(C)C)C(=O)O | >32 >32 µg/mL |
| COC(=O)/C(CCC=C(C)C)=C1\[C@@H](OC(C)=O)C[C@@]2(C)[C@H]1C[C@@H](O)[C@H]1[C@@]3(C)CC[C@H](NCCN)[C@@H](C)[C@@H]3CC[C@@]12C | 13.2 µg/mL |
| COC(=O)/C(CCC=C(C)C)=C1\[C@@H](OC(C)=O)C[C@@]2(C)[C@@H]1C[C@@H](O)[C@@H]1[C@@]3(C)CC[C@H](NCCCNCCCCNCCCN)[C@@H](C)C3CC[C@@]12C (some centres unmarked) | 18.1 µg/mL |
| CC(=O)O[C@H]1C[C@@]2(C)[C@H](C[C@@H](O)[C@@H]3[C@@]4(C)CC[C@H](NC(=O)c5cnccn5)[C@@H](C)C4CC[C@@]32C)/C1=C(\CCC=C(C)C)C(=O)O (some centres unmarked) | >32 >32 µg/mL |
| CC(=O)O[C@H]1C[C@@]2(C)[C@@H](C[C@@H](O)[C@H]3[C@@]4(C)CC[C@H](NCCCNCCCCNCCCN)[C@@H](C)[C@@H]4CC[C@@]32C)/C1=C(\CCC=C(C)C)C(=O)O | > 32 µg/mL |

Origin of the recorded values: paper PMC10056636
